- System: Rh18 complex spheroid viability, percent test/control
- assay.overview: Anticancer human tumor Rh18 cell line growth inhibition [Asc]; active = viability on the fitted dose curve at most 10% of control; inactive = the rest;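 also: spheroids exposed to compound for 7 days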
- particulars: second compound 0.0316 µM; first compound 1 µM
- Source text: Multicellular complex tumor spheroid response to apoptosis pathway targeting inhibitors Alrizomadlin, Pelcitoclax, and Dasminapant in combination with a variety of drugs and investigational agents in selected tumor cell lines […] Compounds. […] If the clinical Cmax for an agent had not been determined, the highest concentration tested was 10 microM. […]
Classes used: active, inactive

[[record]]
compound = "O=C(c1ccc(F)c(F)c1Nc1ccc(I)cc1F)N1CC(O)([C@@H]2CCCCN2)C1 + CNC(C)C(=O)NC1CN(S(=O)(=O)c2cccc(S(=O)(=O)N3CCC4CCC(C(=O)NC(c5ccccc5)c5ccccc5)N4C(=O)C(NC(=O)C(C)NC)C3)c2)CCC2CCC(C(=O)NC(c3ccccc3)c3ccccc3)N2C1=O"
assigned_label = "inactive"

[[record]]
compound = "C#Cc1c(F)ccc2cc(O)cc(-c3ncc4c(N5CC6CCC(C5)N6)nc(OCC56CCCN5CC(F)C6)nc4c3F)c12 (stereo not drawn) + CNC(C)C(=O)NC1CN(S(=O)(=O)c2cccc(S(=O)(=O)N3CCC4CCC(C(=O)NC(c5ccccc5)c5ccccc5)N4C(=O)C(NC(=O)C(C)NC)C3)c2)CCC2CCC(C(=O)NC(c3ccccc3)c3ccccc3)N2C1=O"
assigned_label = "inactive"

[[record]]
compound = "COc1c(OCCCN2CCOCC2)ccc2c3n(c(=NC(=O)c4cnc(N)nc4)nc12)CCN3 + CNC(C)C(=O)NC1CN(S(=O)(=O)c2cccc(S(=O)(=O)N3CCC4CCC(C(=O)NC(c5ccccc5)c5ccccc5)N4C(=O)C(NC(=O)C(C)NC)C3)c2)CCC2CCC(C(=O)NC(c3ccccc3)c3ccccc3)N2C1=O"
assigned_label = "active"


* * *

- Test system: Rh18 complex spheroid viability, percent test/control
- assay.overview: Anticancer human tumor Rh18 cell line growth inhibition [Asc];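 also: spheroids exposed to compound for 7 days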
- particulars: curve of first compound; second compound 3.16 µM
quantity.kind: IC50

[[record]]
molecule = "C=CC(=O)N1CCN(c2nc(=O)n(-c3c(C)ccnc3C(C)C)c3nc(-c4c(O)cccc4F)c(F)cc23)C(C)C1 (centres undefined) + Cc1c(S(C)(=O)=O)c(-c2cc(F)cc(N3CCN(c4ccc(NS(=O)(=O)c5ccc(NC(CCN6CCC(C(=O)OCCCP(=O)(O)O)CC6)CSc6ccccc6)c(S(=O)(=O)C(F)(F)F)c5)cc4)CC3)c2)c(-c2ccc(Cl)cc2)n1C(C)C"
quantity_kind = "IC50"
result = "< 31.6 nM"

[[record]]
molecule = "Cn1ncnc1[C@H]1c2n[nH]c(=O)c3cc(F)cc(c23)N[C@@H]1c1ccc(F)cc1 + Cc1c(S(C)(=O)=O)c(-c2cc(F)cc(N3CCN(c4ccc(NS(=O)(=O)c5ccc(NC(CCN6CCC(C(=O)OCCCP(=O)(O)O)CC6)CSc6ccccc6)c(S(=O)(=O)C(F)(F)F)c5)cc4)CC3)c2)c(-c2ccc(Cl)cc2)n1C(C)C"
quantity_kind = "IC50"
result = "< 0.316 nM"

[[record]]
molecule = "O=C(c1ccc(F)c(F)c1Nc1ccc(I)cc1F)N1CC(O)([C@@H]2CCCCN2)C1 + Cc1c(S(C)(=O)=O)c(-c2cc(F)cc(N3CCN(c4ccc(NS(=O)(=O)c5ccc(NC(CCN6CCC(C(=O)OCCCP(=O)(O)O)CC6)CSc6ccccc6)c(S(=O)(=O)C(F)(F)F)c5)cc4)CC3)c2)c(-c2ccc(Cl)cc2)n1C(C)C"
quantity_kind = "IC50"
result = "< 3.16 nM"

[[record]]
molecule = "CCN1CCN(Cc2ccc(Nc3ncc(F)c(-c4cc(F)c5nc(C)n(C(C)C)c5c4)n3)nc2)CC1 + Cc1c(S(C)(=O)=O)c(-c2cc(F)cc(N3CCN(c4ccc(NS(=O)(=O)c5ccc(NC(CCN6CCC(C(=O)OCCCP(=O)(O)O)CC6)CSc6ccccc6)c(S(=O)(=O)C(F)(F)F)c5)cc4)CC3)c2)c(-c2ccc(Cl)cc2)n1C(C)C"
quantity_kind = "IC50"
result = "< 3.16 nM"


* * *

- Test system: Rh18 complex spheroid viability, percent test/control
- assay.overview: Anticancer human tumor Rh18 cell line growth inhibition [Asc];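 also: spheroids exposed to compound for 7 days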
- particulars: curve of first compound; second compound 3.16 µM
quantity.kind: IC50

[[record]]
compound = "COc1c(OCCCN2CCOCC2)ccc2c3n(c(=NC(=O)c4cnc(N)nc4)nc12)CCN3 + Cc1c(S(C)(=O)=O)c(-c2cc(F)cc(N3CCN(c4ccc(NS(=O)(=O)c5ccc(NC(CCN6CCC(C(=O)OCCCP(=O)(O)O)CC6)CSc6ccccc6)c(S(=O)(=O)C(F)(F)F)c5)cc4)CC3)c2)c(-c2ccc(Cl)cc2)n1C(C)C"
tgt = "Rh18 complex spheroid viability, percent test/control"
result = "< 3.16 nM"

[[record]]
compound = "Cc1nc(N2CCC3(CC2)COC(C)C3N)c(CO)nc1Sc1ccnc(N)c1Cl (configuration not stated) + Cc1c(S(C)(=O)=O)c(-c2cc(F)cc(N3CCN(c4ccc(NS(=O)(=O)c5ccc(NC(CCN6CCC(C(=O)OCCCP(=O)(O)O)CC6)CSc6ccccc6)c(S(=O)(=O)C(F)(F)F)c5)cc4)CC3)c2)c(-c2ccc(Cl)cc2)n1C(C)C"
tgt = "Rh18 complex spheroid viability, percent test/control"
result = "< 9.49 nM"


* * *

- System: Rh18 complex spheroid viability, percent test/control
- assay.overview: Anticancer human tumor Rh18 cell line growth inhibition [Asc];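 also: spheroids exposed to compound for 7 days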;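 as to viability, T/C: 100% = DMSO vehicle control wells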
- particulars: second compound 1 µM; first compound 0.03 µM; stronger effect = lower value
Catalogue of compounds with associated viability, T/C
quantity.kind: viability, T/C (%)

[[record]]
compound = "NC(=O)C(=Cn1cnc(-c2cc(C(F)(F)F)cc(C(F)(F)F)c2)n1)c1cncnc1 + CNC(C)C(=O)NC1CN(S(=O)(=O)c2cccc(S(=O)(=O)N3CCC4CCC(C(=O)NC(c5ccccc5)c5ccccc5)N4C(=O)C(NC(=O)C(C)NC)C3)c2)CCC2CCC(C(=O)NC(c3ccccc3)c3ccccc3)N2C1=O"
quantity_kind = "viability, T/C"
readout_number = 37.8

[[record]]
compound = "CCN1C(C(=O)NC23CCC(C(=O)O)(CC2)CC3)C(c2cccc(Cl)c2F)C2(C(=O)Nc3cc(Cl)ccc32)C12CCCCC2 (stereo not drawn) + CNC(C)C(=O)NC1CN(S(=O)(=O)c2cccc(S(=O)(=O)N3CCC4CCC(C(=O)NC(c5ccccc5)c5ccccc5)N4C(=O)C(NC(=O)C(C)NC)C3)c2)CCC2CCC(C(=O)NC(c3ccccc3)c3ccccc3)N2C1=O"
quantity_kind = "viability, T/C"
readout_number = 17.2

[[record]]
compound = "CCN1C(C(=O)NC23CCC(C(=O)O)(CC2)CC3)C(c2cccc(Cl)c2F)C2(C(=O)Nc3cc(Cl)ccc32)C12CCCCC2 (stereo not drawn) + Cc1c(S(C)(=O)=O)c(-c2cc(F)cc(N3CCN(c4ccc(NS(=O)(=O)c5ccc(NC(CCN6CCC(C(=O)OCCCP(=O)(O)O)CC6)CSc6ccccc6)c(S(=O)(=O)C(F)(F)F)c5)cc4)CC3)c2)c(-c2ccc(Cl)cc2)n1C(C)C"
quantity_kind = "viability, T/C"
readout_number = 8.85


* * *

- Tested on: Rh18 complex spheroid viability, percent test/control
- assay.overview: Anticancer human tumor Rh18 cell line growth inhibition [Asc];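 also: spheroids exposed to compound for 7 days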;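 as to viability, T/C: 100% = DMSO vehicle control wells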
- particulars: second compound 3.16 µM; first compound 0.1 µM; stronger effect = lower value
Catalogue of compounds with associated viability, T/C
quantity.kind: viability, T/C (%)

[[record]]
compound = "CNC(C)C(=O)NC1CN(S(=O)(=O)c2cccc(S(=O)(=O)N3CCC4CCC(C(=O)NC(c5ccccc5)c5ccccc5)N4C(=O)C(NC(=O)C(C)NC)C3)c2)CCC2CCC(C(=O)NC(c3ccccc3)c3ccccc3)N2C1=O (stereo unspecified) + Cc1c(S(C)(=O)=O)c(-c2cc(F)cc(N3CCN(c4ccc(NS(=O)(=O)c5ccc(NC(CCN6CCC(C(=O)OCCCP(=O)(O)O)CC6)CSc6ccccc6)c(S(=O)(=O)C(F)(F)F)c5)cc4)CC3)c2)c(-c2ccc(Cl)cc2)n1C(C)C"
readout_number = 4.89

[[record]]
compound = "O=C(c1cc(Cc2n[nH]c(=O)c3ccccc23)ccc1F)N1CCN(C(=O)C2CC2)CC1 + Cc1c(S(C)(=O)=O)c(-c2cc(F)cc(N3CCN(c4ccc(NS(=O)(=O)c5ccc(NC(CCN6CCC(C(=O)OCCCP(=O)(O)O)CC6)CSc6ccccc6)c(S(=O)(=O)C(F)(F)F)c5)cc4)CC3)c2)c(-c2ccc(Cl)cc2)n1C(C)C"
readout_number = 7.47

[[record]]
compound = "C#Cc1c(F)ccc2cc(O)cc(-c3ncc4c(N5CC6CCC(C5)N6)nc(OCC56CCCN5CC(F)C6)nc4c3F)c12 (stereo unspecified) + Cc1c(S(C)(=O)=O)c(-c2cc(F)cc(N3CCN(c4ccc(NS(=O)(=O)c5ccc(NC(CCN6CCC(C(=O)OCCCP(=O)(O)O)CC6)CSc6ccccc6)c(S(=O)(=O)C(F)(F)F)c5)cc4)CC3)c2)c(-c2ccc(Cl)cc2)n1C(C)C"
readout_number = 6.59

[[record]]
compound = "C=CC(=O)N1CCN(c2nc(=O)n(-c3c(C)ccnc3C(C)C)c3nc(-c4c(O)cccc4F)c(F)cc23)C(C)C1 (stereo unspecified) + Cc1c(S(C)(=O)=O)c(-c2cc(F)cc(N3CCN(c4ccc(NS(=O)(=O)c5ccc(NC(CCN6CCC(C(=O)OCCCP(=O)(O)O)CC6)CSc6ccccc6)c(S(=O)(=O)C(F)(F)F)c5)cc4)CC3)c2)c(-c2ccc(Cl)cc2)n1C(C)C"
readout_number = 8.21

[[record]]
compound = "Cn1ncnc1[C@H]1c2n[nH]c(=O)c3cc(F)cc(c23)N[C@@H]1c1ccc(F)cc1 + Cc1c(S(C)(=O)=O)c(-c2cc(F)cc(N3CCN(c4ccc(NS(=O)(=O)c5ccc(NC(CCN6CCC(C(=O)OCCCP(=O)(O)O)CC6)CSc6ccccc6)c(S(=O)(=O)C(F)(F)F)c5)cc4)CC3)c2)c(-c2ccc(Cl)cc2)n1C(C)C"
readout_number = 6.64

[[record]]
compound = "CCN1CCN(Cc2ccc(Nc3ncc(F)c(-c4cc(F)c5nc(C)n(C(C)C)c5c4)n3)nc2)CC1 + Cc1c(S(C)(=O)=O)c(-c2cc(F)cc(N3CCN(c4ccc(NS(=O)(=O)c5ccc(NC(CCN6CCC(C(=O)OCCCP(=O)(O)O)CC6)CSc6ccccc6)c(S(=O)(=O)C(F)(F)F)c5)cc4)CC3)c2)c(-c2ccc(Cl)cc2)n1C(C)C"
readout_number = 6.51

